assayComment: Single toxicity test (IV and IP single dose)
Type: in vivo, Mouse
setupConditions: mouse, in vivo, iv, 40 mg/kg
measuredMetric: mortality (%)
Give your result in % as a bare value.

For record CC(=O)c1c([S+]([O-])Cc2ccccc2)nc2c(Br)ccc(Cl)c2c1O (stereo not shown) [Compound 4] the listed mortality is 0

* * *

assayComment: Cell based assay, cell viability (CellTiter-Glo), RT4 (selectivity)
setupConditions: human, rt4 cells; selectivity evaluation, Table 6; benign; read-out: Cytotoxicity (µM) RT4
measuredMetric: CC50 at 72 h

CC(=O)c1c([S+]([O-])Cc2ccc([N+](=O)[O-])cc2)[nH]c2c(Br)ccc(Cl)c2c1=O (centres unmarked)	> 10 µM

Lookup result for CC(=O)c1c([S+]([O-])Cc2ccccc2)nc2c(Br)ccc(Cl)c2c1O (centres unmarked) ; measured CC50 at 72 h: > 10 µM

* * *

assayComment: Single toxicity test (IV and IP single dose)
Assay type: in vivo, Mouse
setupConditions: mouse, in vivo, ip, 40 mg/kg
measuredMetric: mortality (%)
Number only, in %; omit the unit.

In plain terms, CC(=O)c1c([S+]([O-])Cc2ccccc2)nc2c(Br)ccc(Cl)c2c1O (stereo not shown) has a documented mortality of 0

* * *

measuredTarget: recombinant c-Myc/Max
assayComment: Protein assay: electrophoretic mobility shift assay (EMSA) of DNA binding of c-Myc/Max
pIC50: −log10 of the molar value.
Quick reference: pIC50 of the listed items.

CC(=O)c1c([S+]([O-])Cc2ccccc2)nc2c(Br)ccc(Cl)c2c1O (centres unmarked)	> 6.00

We now examine a further molecule.
Record CC(=O)c1c(S(=O)(=O)Cc2ccccc2)nc2c(Br)ccc(Cl)c2c1O has recombinant c-Myc/Max pIC50 equal to > 6.00
